Molecular target: human norepinephrine transporter (hNET) (Homo sapiens, UniProt P23975)
Sequence (P23975 whole entry): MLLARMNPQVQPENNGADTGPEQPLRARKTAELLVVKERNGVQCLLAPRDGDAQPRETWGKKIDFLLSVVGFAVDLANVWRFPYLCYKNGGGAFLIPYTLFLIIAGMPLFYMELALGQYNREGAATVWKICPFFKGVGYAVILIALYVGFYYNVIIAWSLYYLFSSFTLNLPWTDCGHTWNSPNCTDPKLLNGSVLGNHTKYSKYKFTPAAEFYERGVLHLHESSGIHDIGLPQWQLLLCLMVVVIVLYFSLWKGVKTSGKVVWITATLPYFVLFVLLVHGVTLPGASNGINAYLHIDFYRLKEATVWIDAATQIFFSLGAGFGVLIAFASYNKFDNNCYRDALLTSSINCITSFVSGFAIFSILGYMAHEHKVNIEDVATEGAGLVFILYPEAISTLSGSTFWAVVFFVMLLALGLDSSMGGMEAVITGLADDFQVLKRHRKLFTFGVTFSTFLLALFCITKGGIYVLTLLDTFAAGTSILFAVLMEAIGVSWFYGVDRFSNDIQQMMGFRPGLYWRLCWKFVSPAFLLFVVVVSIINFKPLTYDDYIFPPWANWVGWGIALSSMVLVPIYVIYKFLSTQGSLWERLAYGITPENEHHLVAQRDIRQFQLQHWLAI
Assay: cell-based
Conditions: Table 2; read-out: Reuptake [3H]NE (Ki ± SD)
Recorded Endpoint: Ki

compound="OC1(c2ccc(Br)cc2)CCN(CCCCOC(c2ccc(F)cc2)c2ccc(F)cc2)CC1 [Compound 31530]" tested_target="human norepinephrine transporter (hNET) (Homo sapiens, UniProt P23975)" recorded_endpoint=Ki result="1.87 µM"
compound="CC(=O)C1(c2ccccc2)CCN(CCCCOC(c2ccc(F)cc2)c2ccc(F)cc2)CC1 [Compound 31525]" tested_target="human norepinephrine transporter (hNET) (Homo sapiens, UniProt P23975)" recorded_endpoint=Ki result="2.55 µM"
compound="OC1(c2ccccc2)CCN(CCCCOC(c2ccc(F)cc2)c2ccc(F)cc2)CC1 [Compound 31531]" tested_target="human norepinephrine transporter (hNET) (Homo sapiens, UniProt P23975)" recorded_endpoint=Ki result="0.179 µM"
